test.name: yeast display, Sf9 membrane polyspecificity reagent, FACS + sequencing; frameworks hold sequencing errors
measurement.kind: polyreactivity (PSR sort gate)

As a guide, the following entries are already answered.
chain: QVQLVESGGGLVQAGGSLRLSCAASGFIFTWYTMGWSRQAPGKERELVAAITSGGNTNYADSVKGRFTISRDNAKNTVYLQMNSLKPEDTSVYYCALGYLASRLKFAKYDYWGQGTQVNVSS
reported.result: high polyreactivity
--
chain: QVQLVESGGGLVQAGGSLRLSCAASGRIFWYYDMGWYRQAPGKERELVAAISQRGGSTYYADSVKGRFTISRDNAKNTVYLQMKSLKPEDTAVYYCAKRNPYWATREYWGLGTQVTVSS
reported.result: high polyreactivity
--
chain: QVQLVESGGGLVQAGGSLRLSCAASGFIFAYNAMGWYRQAPGKERELVAAISIDTSTYYADSVKGRFTISRDNAKNTVYLQMNSLKPEDTAVYYCAADHVPFRLTELYYWGQGTQVTVSS
reported.result: low polyreactivity
--
chain: QVQLVESGGGLVQAGGSLRLSGAAWSIFYLNAMGWYRKAPGKERELVAAISSAGSTYYADSVKGRFTISRDNAKNTVYLQMNSLKPEDTAVYYCAAYWYDSPGVTEIWYDYWGQGTQVTVSS
reported.result: low polyreactivity

Briefly, polyreactivity (PSR sort gate) measured for "QVQLVESGGGLVQAGGSLRLSCAASGFIFGGYAMGWYRHAPRKERELVAAISRSGGSTYYADSVKGRFTISRDNAKNTVYLQMNSLKPEDTAVYYCNAVPRRQGFNYWGQGTQVSVSS" : high polyreactivity

Briefly, polyreactivity (PSR sort gate) measured for "QVQLVESGGGLVQAGGSLRLSCAASGRIFIIYAMGWYRQAPGKERELVAAITSGGGSTRYADSVKGRFPISRDNAKNTVYLQMNSLKPEDTAVYYCAAARITRGRRYDYWGQGTQVTVSS" : high polyreactivity

Briefly, polyreactivity (PSR sort gate) measured for "QVQLVETGGGIVQAGGSLRLSCAASGSTFDGYVMGWYRQEPGKERELVAAISGSGGSTYYADSVKGRFTISRDNAKNTVYFELYSLKPEDTSVYYCAADSWWYDDYSEGDYWGQGTQVTVSS" : low polyreactivity

Briefly, polyreactivity (PSR sort gate) measured for "QVQLVESGGGLVQAGGSLRLSCASSGFTLYANAMGGYRQAPGKERELVADISESGSSTSYADSVKGRFTISRDNAKNTVYLQMKSLKPEDTAVYYCYDYWVQGTQVTVSS" : low polyreactivity

Briefly, polyreactivity (PSR sort gate) measured for "QVQLVESGGCLVQAGGSLRLSCAASGFILSGNTMGWYRQAPGKERELVAGINDDSSTYYADSVKGGFTISRDNAKNTVYLQMNSLKPEDTAVYYCNAGQSWYPSWYYYWGQGTQVTVSS" : low polyreactivity

Briefly, polyreactivity (PSR sort gate) measured for "QVQLVESGGGLVQAGGSLRLSCAASGSTFSDNAMGWYRQAPGKERELVAAINETGGSTYYADSVKGRFTISRDNAKNTVYLQMNSLKPEDTAVYYCNADIDPYGATYAIEYDYWGQGTQVTVSS" : low polyreactivity

Briefly, polyreactivity (PSR sort gate) measured for "QVQLVESGGGLVQAGGSLRLSCAASGITFARYTMGWYRQAPGKERELVAAISWSGTSTYYADSVKGRFTISRDNAKNTVYLQMNSLKPEDTAVYYCAAGYSASRKVDYWGQGTQVTVSS" : high polyreactivity

Briefly, polyreactivity (PSR sort gate) measured for "QVHLVESGGGLVQAGGSLRLSCAASGSTFYAYTMGWYRQAPGKERELVAAISSRGGRTYYADSVKGRFTISRDNAKNTVYLQMNSLKPEDTAVYYCARTSWSGVSYDYWGQGTQVTVSS" : high polyreactivity

Briefly, polyreactivity (PSR sort gate) measured for "QVQLVESGGGLVQAGASLRLSCAPSGLIFTYNARGWYRQAPGKERELVAAITYRVSSTYYADSVKGRFTISRDNAKNSVYLQMNSLKPEDTAVYYCAAPRLIRFVTYYSWGLGTQVTVSS" : high polyreactivity

Briefly, polyreactivity (PSR sort gate) measured for "QVQLVESGGGLDQAGGSLRLSCAASGNIFPAYAMGWYRQAPGKERELVAAISKSGGRTYYADSVKGRFTISRDNAKKTVYLVMNSLKPEDSAVYFCAARDRRYQWTSWYDYWGQGTQVTVSS" : high polyreactivity

Briefly, polyreactivity (PSR sort gate) measured for "QVQLVESVGGLVQAGGSLRLSCAASGSTFKAYAVGWYRQAPGKEGELVAAITKSGGRTYYADSVKGRFTISLDNAKNTVYLQMNSLKPEDTAVYYCAAVFRPDSSAFRYYYWGQGTQVTVSS" : high polyreactivity

Briefly, polyreactivity (PSR sort gate) measured for "QVQLVESGGGLVQAGGSLRLSCAASGRTFWNNAMGWYRQAPGKERELVAAISVRGGSTYYADSVKGRFTISRDNAKNTVYLQMNSLKPEDTAVYYCATRSRGWIAPPWQGSDGYYYWGQGTQVTVSS" : low polyreactivity

Briefly, polyreactivity (PSR sort gate) measured for "QVQLQESGGGLVQAGGSLRMSFAASGNIFDADIMGWYRPAPGKEPELVASITDGRRTNYADSVKGRYTIRRDSEKNTVYLQMNSLKPEDTAVYYCAAIAYPVVPTFVDFDSDYFHWGQGTHVTVSS" : high polyreactivity

Briefly, polyreactivity (PSR sort gate) measured for "QVQLVESGGGLVQAGGSLRLSCAASGSTFSLYALGWYRQAPGKERELVAAITRGGNTYYADSVKGRFTISRDNAKNTVYLQMNSLKPEDTAVYYCNAVFPKTRSYAYGYWGQGTQVTVSS" : high polyreactivity

Briefly, polyreactivity (PSR sort gate) measured for "QVQLVESGGGLVQAGGSLRLSCAASGSTLSFNAMGWYRQAPGKERELVAGITYSGGSTYYADSVKGRFTISRDNAKNTVYLQMNSLKPEDTAVYYCNKSSGVYYGHLDYWGQGTQVTVSS" : low polyreactivity

Briefly, polyreactivity (PSR sort gate) measured for "QVQLVESGGGLVQAGGILRLSCAASGLTFSRYDMGWYRPEPGKERELVAAITWSGSSTYYADSVKGRFTLSRDNAKNTVYLQMNSLKRVDTAVYYCAARYGYSRGPYYRSYYWGQGTQVTVSS" : high polyreactivity

Briefly, polyreactivity (PSR sort gate) measured for "QVQLVESGGGLVQAGGSLRLSCAASGSIFLAYAMGWYRQAPGKEREFVAAISFSDGSTYYADSVKGRFTISRDNAKNTVYLQMNSLKPEDTAVYYCNKGASPVDYDYWGQGTQVTVSS" : low polyreactivity
